B1: VH:VL chains; a variant is named by its letters at X, in order (parent)
chain 1: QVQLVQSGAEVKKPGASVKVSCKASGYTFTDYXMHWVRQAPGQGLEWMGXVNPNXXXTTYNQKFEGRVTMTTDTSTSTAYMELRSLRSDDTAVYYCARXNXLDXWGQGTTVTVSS
chain 2: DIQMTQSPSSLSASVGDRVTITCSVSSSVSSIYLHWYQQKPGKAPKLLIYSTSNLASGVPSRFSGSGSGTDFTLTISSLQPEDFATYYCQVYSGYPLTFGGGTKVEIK

# Variants of: B1
# Assay Details: yeast display scFab, FACS + sequencing
# Measurement Setup: with MET
This is one part of the list. No count for the full screen is at hand.
Endpoint Name: antigen binding call

Solved entries:
DRGGDDGS = no binding
DKTGDAAV = no binding
YRARGSVS = binds
FRGRGAVY = binds
YAATADSS = no binding
DTTEASLV = no binding

### Prompt What measured antigen binding call goes with `YRRRGASS` ?
### Response binds

### Prompt What measured antigen binding call goes with `VEGGADVF` ?
### Response no binding

### Prompt Which antigen binding call value is on record for `YRGRTAAA` ?
### Response binds
